Source listed as patent US7834179B2.

Target: interaction between p53 and MDM2 proteins (Homo sapiens)
Sequence (Q00987 whole entry): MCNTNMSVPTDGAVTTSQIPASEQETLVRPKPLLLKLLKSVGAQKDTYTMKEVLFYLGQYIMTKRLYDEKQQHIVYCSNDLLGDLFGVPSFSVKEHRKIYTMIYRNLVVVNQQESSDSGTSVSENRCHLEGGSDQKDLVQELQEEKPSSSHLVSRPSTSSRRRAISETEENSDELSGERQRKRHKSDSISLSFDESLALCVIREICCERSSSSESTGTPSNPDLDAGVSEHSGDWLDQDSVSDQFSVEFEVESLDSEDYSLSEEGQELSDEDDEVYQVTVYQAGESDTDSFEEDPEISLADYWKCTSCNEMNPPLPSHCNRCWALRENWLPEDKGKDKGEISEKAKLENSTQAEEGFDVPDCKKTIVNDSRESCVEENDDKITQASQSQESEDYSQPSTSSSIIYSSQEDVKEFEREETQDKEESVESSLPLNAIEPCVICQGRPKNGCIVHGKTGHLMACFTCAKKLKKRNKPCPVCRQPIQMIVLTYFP
Assay: HTRF assay of inhibition of p53-MDM2 interaction (GST-MDM2 / biotinylated p53 peptide)
Type: binding
Conditions: recombinant GST-tagged MDM2 and biotinylated p53 peptide, 37° C. for 1 h
pIC50: −log10 of the molar value.
measurement-name: pIC50

1) C=C(CC)[C@H]1N2CC(=O)N(CC(=O)NCCO)N=C2C[C@@H](c2cccc(Cl)c2)[C@]12C(=O)Nc1cc(Cl)ccc12 [Example 11c]	6.53
2) C=CCOc1ccc(I)cc1[C@H]1N2CC(=O)N(C)N=C2C[C@@H](c2cccc(Cl)c2)[C@]12C(=O)Nc1cc(Cl)ccc12 (racemic) [Example 18g]	6.57
3) C=C(CC)[C@H]1N2CC(=O)N(CCCN(C)C)N=C2C[C@@H](c2cccc(Cl)c2)[C@]12C(=O)Nc1cc(Cl)ccc12 (racemic)	7.00

[a] C=C(CC)[C@H]1N2CC(=O)N(CCOC(C)=O)N=C2C[C@@H](c2cccc(Cl)c2)[C@]12C(=O)Nc1cc(Cl)ccc12 (racemic)
[b] Cc1ccc(F)cc1[C@H]1N2CC(=O)N(C)N=C2C[C@@H](c2cccc(Cl)c2)[C@]12C(=O)Nc1cc(Cl)ccc12 (racemic)
q: // pick min by pIC50: a , b Give the chosen item's label as your response.
a: a
(a: 6.05, b: 6.72)
